Below is a list of entries, each paired with its recorded growth inhibition value.
assay.explanation: NCI Yeast Anticancer Drug Screen. Data for the bub3 strain (AID 167)
conditions.used: S. cerevisiae bub3 mutant strain, at 50.0 µM, hits give high values
The panel holds about 79,000 compounds, 15% with a hit somewhere; the sample as a whole holds those more often.
Express it in %; write the number only.

The following compounds have reported results that may help.
>>> val("N#C/C(=C\\N1CC(=O)NC1=S)C(=O)c1ccc2ccccc2c1")
3.25
>>> val("CCCC[P+](CCCC)(CCCC)C(C(=O)OC)C(C(=O)OC)=C1SC(C(=O)OC)=C(C(=O)OC)S1 (centres undefined)")
19.4
>>> val("CCN(CC)c1ncnc2c1cnn2C")
-15.9
>>> val("CCCCN(CCCC)CC(O)C=O (centres undefined)")
-8.4
>>> val("N#Cc1nnn2c1nc(N)c1c(Cl)cccc12")
-11.8
>>> val("C[Si](C)(C)CSC#N")
2.75
>>> val("NC(CCSCC(F)F)C(=O)O (centres undefined)")
-22
>>> val("[Zn+2].c1ccc(-c2c3nc(c(-c4ccccc4)c4[n-]c(c(-c5ccccc5)c5nc(c(-c6ccccc6)c6[n-]c2c2ccccc62)-c2ccccc2-5)c2ccccc42)-c2ccccc2-3)cc1")
-23.9

Inquiry: State its growth inhibition for this compound: `COc1ccc(C2=NCCO2)cc1N`
Reply text: 4.35

Inquiry: State its growth inhibition for this compound: `N#C/C(=C\c1ccccc1)c1cccc(Br)c1`
Reply text: 48.1

Inquiry: State its growth inhibition for this compound: CCOC(=O)N1C2C=C(C)C(ON2C(=O)c2ccccc2)C2C(C)C(=O)N21 (centres undefined)
Reply text: -17.5

The reported measurements were obtained from PubChem BioAssay (NCI).
